studySystem: T1, MSUT2 ZF (CCCH domains only) (UniProt Q6PJT7 601-736)
T1 sequence: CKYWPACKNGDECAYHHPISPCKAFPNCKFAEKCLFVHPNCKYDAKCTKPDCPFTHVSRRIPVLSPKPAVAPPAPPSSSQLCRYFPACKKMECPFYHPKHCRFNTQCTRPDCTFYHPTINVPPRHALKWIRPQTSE
experimentNotes: competition
observationType: IC50 (nM)
Numbers only, in nM.

query: Returns the measured IC50 for the input binder. Input: AAAAAAAAAAAAAAA (ssRNA) [unlabeled poly(A)15 RNA]
result: 290
